Data provenance is patent US4876260A.

target: M1 muscarinic receptors (3H-PZ sites, frontal cortex) (Rattus norvegicus); experiment: Displacement of 3H-PZ from rat frontal cortex homogenate; format: binding; details: (g) frontal cortex ratio
Sequence (P08482 whole entry): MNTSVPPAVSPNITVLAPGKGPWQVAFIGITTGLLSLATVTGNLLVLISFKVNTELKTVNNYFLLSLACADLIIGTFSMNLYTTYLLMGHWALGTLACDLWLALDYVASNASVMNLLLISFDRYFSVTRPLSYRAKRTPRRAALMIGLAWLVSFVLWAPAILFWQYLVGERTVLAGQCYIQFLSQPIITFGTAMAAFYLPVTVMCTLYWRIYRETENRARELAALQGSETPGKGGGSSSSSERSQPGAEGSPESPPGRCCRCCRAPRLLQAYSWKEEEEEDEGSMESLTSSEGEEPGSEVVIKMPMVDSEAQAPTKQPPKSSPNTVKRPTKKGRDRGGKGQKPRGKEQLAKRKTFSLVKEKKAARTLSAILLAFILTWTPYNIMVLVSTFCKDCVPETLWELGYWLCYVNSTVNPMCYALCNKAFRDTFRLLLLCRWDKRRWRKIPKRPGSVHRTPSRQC
Mark each entry yes if its a':c', Ki(3H-PZ):Ki(3H-CD) sits below 1, and no for all others.

Check out these entries, answers already filled in.
Q: Does the reported a':c', Ki(3H-PZ):Ki(3H-CD) of the following compound sit strictly below 1? C[C@H]1O[C@]2(CS1)CN1CCC2CC1 (single isomer, unassigned) [compound 6]
A: yes

Q: Does the reported a':c', Ki(3H-PZ):Ki(3H-CD) of the following compound sit strictly below 1? O=C1CCCN1CC#CCN1CCCC1
A: no

Q: Does the reported a':c', Ki(3H-PZ):Ki(3H-CD) of the following compound sit strictly below 1? C[C@H]1O[C@@]2(CN3CCC2CC3)CS1(=O)=O (relative stereo)
A: no

Continuing:
Q: Does the reported a':c', Ki(3H-PZ):Ki(3H-CD) of the following compound sit strictly below 1? C[C@H]1O[C@]2(CS1)CN1CCC2CC1 (relative stereo) [compound 4]
A: no

Q: Does the reported a':c', Ki(3H-PZ):Ki(3H-CD) of the following compound sit strictly below 1? CC1OCC2(CN3CCC2CC3)S1 (stereo not shown) [compound 8]
A: yes

Q: Does the reported a':c', Ki(3H-PZ):Ki(3H-CD) of the following compound sit strictly below 1? C[C@H]1O[C@]2(CS1)CN1CCC2CC1 (single isomer, unassigned) [Compound #5]
A: no
